B1: FCHO1 (parent)
chain: HLELTRKLQDLIKDVLRYGEEQLK

# Variants of: B1
# TEST_NAME: protein stability index of a GFP-peptide fusion (GPS, HEK-293T) (PSI 1-6); higher = more stable;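 note: lentivirally expressed fusions sorted by FACS into six bins by GFP to DsRed ratio, PSI derived from sequencing read proportions per bin multiplied by bin number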
# RUN_PARAMETERS: c terminus: a fixed tail appended
Use 2 as the dividing line for protein stability index, with the line itself on the 1.0 side and lower values as 0.0.

{"MUTATION_KEY": "T5Y", "LABEL_VALUE": 1.0}
{"MUTATION_KEY": "K13T", "LABEL_VALUE": 0.0}
{"MUTATION_KEY": "L2E", "LABEL_VALUE": 1.0}
{"MUTATION_KEY": "E21N", "LABEL_VALUE": 1.0}
{"MUTATION_KEY": "V15F", "LABEL_VALUE": 1.0}
{"MUTATION_KEY": "L4M", "LABEL_VALUE": 1.0}
{"MUTATION_KEY": "L4W", "LABEL_VALUE": 1.0}
{"MUTATION_KEY": "K13L", "LABEL_VALUE": 1.0}
{"MUTATION_KEY": "L23S", "LABEL_VALUE": 1.0}
{"MUTATION_KEY": "K24I", "LABEL_VALUE": 1.0}
{"MUTATION_KEY": "R17I", "LABEL_VALUE": 0.0}
{"MUTATION_KEY": "G19W", "LABEL_VALUE": 1.0}
{"MUTATION_KEY": "K24D", "LABEL_VALUE": 0.0}
{"MUTATION_KEY": "D10K", "LABEL_VALUE": 1.0}
{"MUTATION_KEY": "D14F", "LABEL_VALUE": 0.0}
{"MUTATION_KEY": "Y18V", "LABEL_VALUE": 1.0}
{"MUTATION_KEY": "L16D", "LABEL_VALUE": 1.0}
{"MUTATION_KEY": "E20D", "LABEL_VALUE": 1.0}
{"MUTATION_KEY": "E21D", "LABEL_VALUE": 0.0}
{"MUTATION_KEY": "L4Q", "LABEL_VALUE": 1.0}
{"MUTATION_KEY": "L16C", "LABEL_VALUE": 1.0}
{"MUTATION_KEY": "D14A", "LABEL_VALUE": 1.0}
{"MUTATION_KEY": "L2W", "LABEL_VALUE": 0.0}
{"MUTATION_KEY": "Q9G", "LABEL_VALUE": 0.0}
{"MUTATION_KEY": "I12C", "LABEL_VALUE": 0.0}
{"MUTATION_KEY": "D14H", "LABEL_VALUE": 1.0}
{"MUTATION_KEY": "V15H", "LABEL_VALUE": 0.0}
{"MUTATION_KEY": "I12F", "LABEL_VALUE": 1.0}
{"MUTATION_KEY": "R17G", "LABEL_VALUE": 0.0}
{"MUTATION_KEY": "L16P", "LABEL_VALUE": 1.0}
{"MUTATION_KEY": "G19K", "LABEL_VALUE": 0.0}
{"MUTATION_KEY": "G19T", "LABEL_VALUE": 1.0}
{"MUTATION_KEY": "Q9W", "LABEL_VALUE": 1.0}
{"MUTATION_KEY": "R17C", "LABEL_VALUE": 0.0}
{"MUTATION_KEY": "D10R", "LABEL_VALUE": 1.0}
{"MUTATION_KEY": "H1T", "LABEL_VALUE": 1.0}
{"MUTATION_KEY": "L2V", "LABEL_VALUE": 1.0}
{"MUTATION_KEY": "L2Q", "LABEL_VALUE": 1.0}
{"MUTATION_KEY": "L23H", "LABEL_VALUE": 1.0}
{"MUTATION_KEY": "E21I", "LABEL_VALUE": 1.0}
{"MUTATION_KEY": "K24G", "LABEL_VALUE": 0.0}
{"MUTATION_KEY": "L2I", "LABEL_VALUE": 0.0}
{"MUTATION_KEY": "K13E", "LABEL_VALUE": 1.0}
{"MUTATION_KEY": "G19S", "LABEL_VALUE": 0.0}
{"MUTATION_KEY": "L11M", "LABEL_VALUE": 1.0}

Sourced from the supplement of paper PMC10567573
